System: weeds ABUTH, AMATA, AMBEL, CHEAL, ERICA
Test: Postemergence herbicide evaluation, overall average % weed control (ABUTH, AMATA, AMBEL, CHEAL, ERICA)
Format: in vivo
Details: post-emergence, 168 h, 560 g ae/ha, 7 DAA; read-out: Overall Ave % Weed Control
Below, each entry is listed alongside its reported pest or weed control at 560 g/ha.
property-name: pest or weed control at 560 g/ha (%)

>  <compound>
O=C(COc1ccc(Cl)cc1Cl)Nc1ccon1 [Compound D2]

>  <target-or-system>
weeds ABUTH, AMATA, AMBEL, CHEAL, ERICA

>  <property-name>
pest or weed control at 560 g/ha

>  <endpoint-unit>
%

>  <test-result>
77

$$$$
>  <compound>
O=C(COc1ccc(Cl)cc1Cl)O/N=C1\CCCc2ccccc21

>  <target-or-system>
weeds ABUTH, AMATA, AMBEL, CHEAL, ERICA

>  <property-name>
pest or weed control at 560 g/ha

>  <endpoint-unit>
%

>  <test-result>
62.5

$$$$
>  <compound>
O=C(COc1ccc(Cl)cc1Cl)O/N=C/c1cccnc1

>  <target-or-system>
weeds ABUTH, AMATA, AMBEL, CHEAL, ERICA

>  <property-name>
pest or weed control at 560 g/ha

>  <endpoint-unit>
%

>  <test-result>
79.7

$$$$
>  <compound>
COc1ccc(/C=N/OC(=O)COc2ccc(Cl)cc2Cl)cc1

>  <target-or-system>
weeds ABUTH, AMATA, AMBEL, CHEAL, ERICA

>  <property-name>
pest or weed control at 560 g/ha

>  <endpoint-unit>
%

>  <test-result>
68.5

$$$$
>  <compound>
C/C(=N\OC(=O)COc1ccc(Cl)cc1Cl)c1ccccc1Cl

>  <target-or-system>
weeds ABUTH, AMATA, AMBEL, CHEAL, ERICA

>  <property-name>
pest or weed control at 560 g/ha

>  <endpoint-unit>
%

>  <test-result>
71.5

$$$$
>  <compound>
Cc1nccc(NC(=O)COc2ccc(Cl)cc2Cl)c1C

>  <target-or-system>
weeds ABUTH, AMATA, AMBEL, CHEAL, ERICA

>  <property-name>
pest or weed control at 560 g/ha

>  <endpoint-unit>
%

>  <test-result>
73.5

$$$$
>  <compound>
CC(C)CONC(=O)COc1ccc(Cl)cc1Cl

>  <target-or-system>
weeds ABUTH, AMATA, AMBEL, CHEAL, ERICA

>  <property-name>
pest or weed control at 560 g/ha

>  <endpoint-unit>
%

>  <test-result>
85.5

$$$$
>  <compound>
O=C(COc1ccc(Cl)cc1Cl)Nc1nccs1

>  <target-or-system>
weeds ABUTH, AMATA, AMBEL, CHEAL, ERICA

>  <property-name>
pest or weed control at 560 g/ha

>  <endpoint-unit>
%

>  <test-result>
70

$$$$
>  <compound>
C/C(=N\OC(=O)COc1ccc(Cl)cc1Cl)c1cccnc1

>  <target-or-system>
weeds ABUTH, AMATA, AMBEL, CHEAL, ERICA

>  <property-name>
pest or weed control at 560 g/ha

>  <endpoint-unit>
%

>  <test-result>
80.3

$$$$
>  <compound>
O=C(COc1ccc(Cl)cc1Cl)Nc1c(Cl)c(F)nc(F)c1Cl

>  <target-or-system>
weeds ABUTH, AMATA, AMBEL, CHEAL, ERICA

>  <property-name>
pest or weed control at 560 g/ha

>  <endpoint-unit>
%

>  <test-result>
21.2

$$$$
